Source: patent US9176118B2

PROTOCOL_SUMMARY: Decapitated locust model: hemolymph drug concentration by LCMS after administration via esophageal catheter
TEST_PARAMETERS: male, Locusta migratoria (locust), in vivo, 2 µg per animal
Description: The insects may be obtained from local suppliers or bred in house. The grasshoppers were reared under crowded conditions at 28° C. and a 12:12 dark:light photocycle and fed fresh grass and bran. Before experiments the grasshoppers were fed ecologically cultivated wheat for two weeks. […] At various times after administration hemolymph samples are taken for quantitative determination of drug concentration in the hemolymph. […] Drug concentration is analysed by HPLC, LC/MSMS or other methods. […]
READOUT_NAME: concentration at 30 min (ng/mL)
One number for each entry, in ng/mL.

Name the recorded concentration at 30 min for Cn1c(=O)c2c(ncn2C)n(C)c1=O [caffeine] . 276
